- assay system: PKC epsilon (Homo sapiens)
- Construct: purchased Invitrogen P2282
- Sequence (Q02156 1-737): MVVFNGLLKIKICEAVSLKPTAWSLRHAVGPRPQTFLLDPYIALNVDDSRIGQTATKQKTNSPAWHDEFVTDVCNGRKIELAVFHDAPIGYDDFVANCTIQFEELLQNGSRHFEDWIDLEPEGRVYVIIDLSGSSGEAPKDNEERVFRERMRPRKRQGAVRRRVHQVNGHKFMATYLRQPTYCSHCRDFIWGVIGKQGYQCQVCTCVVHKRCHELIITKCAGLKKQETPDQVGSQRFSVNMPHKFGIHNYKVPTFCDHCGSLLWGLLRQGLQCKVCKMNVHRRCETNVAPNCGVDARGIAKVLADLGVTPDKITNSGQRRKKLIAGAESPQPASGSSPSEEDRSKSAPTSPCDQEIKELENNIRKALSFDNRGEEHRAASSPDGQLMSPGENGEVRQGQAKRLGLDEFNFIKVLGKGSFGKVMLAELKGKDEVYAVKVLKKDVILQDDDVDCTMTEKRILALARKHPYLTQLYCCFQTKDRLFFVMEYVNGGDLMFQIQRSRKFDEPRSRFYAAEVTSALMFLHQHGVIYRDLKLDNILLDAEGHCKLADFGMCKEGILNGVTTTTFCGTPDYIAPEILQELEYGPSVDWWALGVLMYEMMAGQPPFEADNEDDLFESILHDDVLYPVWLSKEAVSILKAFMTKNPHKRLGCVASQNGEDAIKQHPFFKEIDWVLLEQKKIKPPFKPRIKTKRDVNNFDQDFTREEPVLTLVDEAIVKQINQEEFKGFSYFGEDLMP
- experimental protocol: Biochemical assay for PKC epsilon (fluorescence polarization, Protein Kinase C Assay Kit, Red)
- recorded conditions: read-out: IC50 μM PKCε
- Protocol: The compounds were tested for inhibition of PKC epsilon. The inhibition assays were performed with a fluorescence polarization (FP) assay using the commercially available Protein Kinase C Assay Kit, Red, from Invitrogen (Product ID. No. P2941), essentially in accordance with the protocol supplied by the manufacturer. […] The results were fitted to a curve using the XL-Fit algorithm and […] were calculated for each fitted curve, again using the XL-Fit algorithm.
quantity kind: IC50

Solved cases below.
CC(C)(C(=S)NCC(N)c1ccc(C(=O)Nc2ccncc2)cc1)c1ccc(F)cc1 (stereo not shown) [Compound 419]
< 0.05 µM
NC(c1ccc(C(=O)Nc2ccncc2)cc1)C1CCCN1C(=O)C1(c2ccc(F)c(F)c2)CC1 (stereo not shown) [Compound 587]
0.5 to 5 µM
CC(C)C(C(=O)N1CCCC1C(N)c1ccc(C(=O)Nc2ccncc2)cc1)c1ccc(Cl)cc1 (stereo not shown) [Compound 562]
0.5 to 5 µM
NC(c1ccc(C(=O)Nc2ccncc2)cc1)C1CCCN1C(=O)C1(c2ccc(Cl)c(Cl)c2)CC1 (stereo not shown) [Compound 594]
0.5 to 5 µM
CC(C)(C(=O)N1CCCC1C(N)c1ccc(C(=O)Nc2ccncc2)cc1)c1ccc(Cl)cc1 (stereo not shown) [Compound 563]
0.5 to 5 µM

(Q) Specify reported IC50 for the compound shown: NC(c1ccc(C(=O)Nc2ccncc2)cc1)C1CCCN1C(=O)Cc1ccc(F)c(Cl)c1 (stereo not shown) [Compound 603]
(A) 0.5 to 5 µM

Value source: patent US20100168102A9
